# TEST_PARAMETERS: buffer; pH 7.4; 200.0 µM
READOUT_KIND: log10(solubility kinetic) (log10 of the value in µg/mL)
Heads up: the numbers are on a log10 scale; they represent solubility kinetic in µg/mL.

Inquiry: Please supply the value of reported log10(solubility kinetic) for the item Cc1ccc(NC(=O)NCC2CC2(Cl)Cl)cc1 (configuration not stated)
Reply text: 0.96

Inquiry: Please supply the value of reported log10(solubility kinetic) for the item O=Cc1c[nH]c2cccc(OCc3ccccc3)c12
Reply text: 0.66

Inquiry: Please supply the value of reported log10(solubility kinetic) for the item Cc1ccc(S(=O)(=O)NCCNc2ccc(Br)c(C)c2)cc1
Reply text: -0.22

Inquiry: Please supply the value of reported log10(solubility kinetic) for the item CCCCNc1nc(Cl)nc(Nc2ccc(C)cc2)n1
Reply text: 0.23

Inquiry: Please supply the value of reported log10(solubility kinetic) for the item O=[N+]([O-])c1c(NCc2ccco2)ccc2nonc12
Reply text: 1.58

Inquiry: Please supply the value of reported log10(solubility kinetic) for the item O=C1C2C3C=CC(CC3)C2C(=O)N1c1ccc([N+](=O)[O-])cc1 (configuration not stated)
Reply text: 0.53

Inquiry: Please supply the value of reported log10(solubility kinetic) for the item O=C(NCc1ccccc1)c1ccccc1-c1nc2ccccc2[nH]1
Reply text: 0.34

* * *

# TEST_PARAMETERS: buffer; pH 7.4; 200.0 µM
READOUT_KIND: solubility kinetic (µg/mL)
Write the answer as a number in µg/mL, unit excluded.

Inquiry: Please supply the value of reported solubility kinetic for the item Cc1ccc(SCc2noc(-c3c(C)noc3C)n2)cc1
Reply text: 2.1

Inquiry: Please supply the value of reported solubility kinetic for the item CC1CCN(C(=S)c2cccc(O)c2)CC1
Reply text: 32.8

Inquiry: Please supply the value of reported solubility kinetic for the item COCCNC(=O)CN1CCCCCC1.Cl
Reply text: 34.8

Inquiry: Please supply the value of reported solubility kinetic for the item O=C1NC(c2ccc(Cl)c([N+](=O)[O-])c2)Nc2ccccc21 (configuration not stated)
Reply text: 7.7

Inquiry: Please supply the value of reported solubility kinetic for the item COc1cc2c(cc1OC)C(C)N(S(=O)(=O)c1ccc(C)cc1)CC2 (configuration not stated)
Reply text: 26.8

* * *

# TEST_PARAMETERS: buffer; pH 7.4; 200.0 µM
Can you tell me log10(solubility kinetic) for the items I'm about to list?
Heads up: the numbers are on a log10 scale; they represent solubility kinetic in µg/mL.

Inquiry: Please supply the value of reported log10(solubility kinetic) for the item CNC(=O)NC(=O)Cn1cnc2sc(-c3ccccc3)cc2c1=O
Reply text: -0.40

Inquiry: Please supply the value of reported log10(solubility kinetic) for the item CC12CCC(C(=O)NCc3ccc(F)cc3)(OC1=O)C2(C)C (stereo not given)
Reply text: 1.65

Inquiry: Please supply the value of reported log10(solubility kinetic) for the item N#Cc1c(-c2ccc(F)cc2)c2c([nH]c1=O)-c1ccccc1OC2
Reply text: 0.08

Inquiry: Please supply the value of reported log10(solubility kinetic) for the item COc1ccc(C(=O)COC(=O)c2sc(C)nc2C)cc1F
Reply text: 1.56

Inquiry: Please supply the value of reported log10(solubility kinetic) for the item COC(=O)c1c(NC(=O)C(C)(C)C)csc1C
Reply text: 1.26

Inquiry: Please supply the value of reported log10(solubility kinetic) for the item COc1ccccc1NC(=O)NCc1ccc(C)n1C
Reply text: 1.30

Inquiry: Please supply the value of reported log10(solubility kinetic) for the item COC(=O)c1cc(C(=O)Nc2ccc(Cl)cn2)cc([N+](=O)[O-])c1
Reply text: 0.40

Inquiry: Please supply the value of reported log10(solubility kinetic) for the item CCOC(=O)C1=Nc2ccccc2/C1=C\c1c(O)n(C)c(=O)n(C)c1=O
Reply text: 1.67

Inquiry: Please supply the value of reported log10(solubility kinetic) for the item Cc1nc([N+](=O)[O-])cn1Cc1cccc2ccccc12
Reply text: 0.40

Inquiry: Please supply the value of reported log10(solubility kinetic) for the item Cc1onc(-c2ccccc2)c1NC(=O)N(Cc1ccccc1)C(C)C
Reply text: 1.36

Inquiry: Please supply the value of reported log10(solubility kinetic) for the item O=C(Nc1ccc(F)cc1F)c1ccc2ncsc2c1
Reply text: 1.44

Inquiry: Please supply the value of reported log10(solubility kinetic) for the item Cc1ccc(CNC(=O)[C@@H](NC(=O)Cc2ccccc2)C(C)C)cc1
Reply text: 0.87

* * *

# TEST_PARAMETERS: buffer; pH 7.4; 200.0 µM
READOUT_KIND: solubility kinetic (µg/mL)
Write the answer as a number in µg/mL, unit excluded.

Inquiry: Please supply the value of reported solubility kinetic for the item COC(=O)Nc1ccc(SCC(=O)c2ccccc2)cc1
Reply text: 3.4

Inquiry: Please supply the value of reported solubility kinetic for the item O=[N+]([O-])c1ccc(Cc2cncc(O)c2)cc1
Reply text: 34.1

Inquiry: Please supply the value of reported solubility kinetic for the item OC(CCN1CCOCC1)c1ccccc1 (stereo not drawn)
Reply text: 31.3

Inquiry: Please supply the value of reported solubility kinetic for the item COCCn1c(-c2cccs2)nc2nc3ccccc3nc21
Reply text: 39.7

Inquiry: Please supply the value of reported solubility kinetic for the item CC(C)CCNC(=O)C(=O)NCc1ccccc1
Reply text: 2.6

Inquiry: Please supply the value of reported solubility kinetic for the item Cc1cccc(NC(=O)Nc2ccccc2)n1
Reply text: 2.5

Inquiry: Please supply the value of reported solubility kinetic for the item O=C(NCCNC(=O)c1ccco1)c1ccc(Cl)c(Cl)c1
Reply text: 44.7

* * *

# TEST_PARAMETERS: buffer; pH 7.4; 200.0 µM
READOUT_KIND: solubility kinetic (µg/mL)
Write the answer as a number in µg/mL, unit excluded.

Inquiry: Please supply the value of reported solubility kinetic for the item CSc1ccc(CN(C)CC(=O)NCc2ccccc2)cc1
Reply text: 41

Inquiry: Please supply the value of reported solubility kinetic for the item Oc1ccc(C=Nc2ccc3ncccc3c2)c(O)c1
Reply text: 30.5

Inquiry: Please supply the value of reported solubility kinetic for the item CC(C)(CNC(=O)CCC1CCCC1)CNC(=O)CCC1CCCC1
Reply text: 27.1

Inquiry: Please supply the value of reported solubility kinetic for the item COc1ccc(N2CCOCC2)c(NC(=O)c2cccs2)c1
Reply text: 47.7

* * *

# TEST_PARAMETERS: buffer; pH 7.4; 200.0 µM
Think of 30 µg/mL as a floor: if solubility kinetic stands on it or above, it is yes; beneath it, no.

Inquiry: Please check the record COc1ccc(C(=O)NC2CCCCCC2)cc1S(=O)(=O)N1CCCC1 and state if its solubility kinetic is at or above 30 µg/mL.
Reply text: no

Inquiry: Please check the record Cn1cccc1/C=C1/C(=O)NC(=O)N(C(C)(C)C)C1=O and state if its solubility kinetic is at or above 30 µg/mL.
Reply text: yes

Inquiry: Please check the record CCCCN1C2=NC(c3ccccc3)CN2c2ccccc21.Cl (stereo not given) and state if its solubility kinetic is at or above 30 µg/mL.
Reply text: yes

Inquiry: Please check the record O=C(O)c1cn(-c2ccc(F)cc2)c2cc(Cl)c(F)cc2c1=O and state if its solubility kinetic is at or above 30 µg/mL.
Reply text: yes

Inquiry: Please check the record CC(=O)N[C@@H](Cc1c[nH]c2ccccc12)C(=O)NC1CC1 and state if its solubility kinetic is at or above 30 µg/mL.
Reply text: yes

Inquiry: Please check the record CC(CNC(=O)c1ccccc1Cl)c1ccccc1 (stereo not given) and state if its solubility kinetic is at or above 30 µg/mL.
Reply text: yes

Inquiry: Please check the record COc1ccc(Nc2nccc(-c3ccc(C#N)cc3)n2)cc1 and state if its solubility kinetic is at or above 30 µg/mL.
Reply text: no

Inquiry: Please check the record Cl.c1cncc(CNC2CCCCC2)c1 and state if its solubility kinetic is at or above 30 µg/mL.
Reply text: yes

Inquiry: Please check the record Nc1cc(=O)[nH]c(SCC(=O)Nc2ccc(N3CCCCC3)cc2)n1 and state if its solubility kinetic is at or above 30 µg/mL.
Reply text: no

Inquiry: Please check the record COc1ccccc1C(=O)Nc1nc(C)cc(C)n1 and state if its solubility kinetic is at or above 30 µg/mL.
Reply text: yes

Inquiry: Please check the record CN(C)/C=C/C(=O)c1cnc(-c2ccccn2)s1 and state if its solubility kinetic is at or above 30 µg/mL.
Reply text: yes

Inquiry: Please check the record NC(=O)c1ccc(C2SCC(=O)N2CCc2ccccc2)cc1 (stereo not given) and state if its solubility kinetic is at or above 30 µg/mL.
Reply text: yes

Inquiry: Please check the record Cl.c1ccc(C2CN3CCSC3=N2)cc1 (stereo not given) and state if its solubility kinetic is at or above 30 µg/mL.
Reply text: yes

Inquiry: Please check the record O=c1c2c3c(sc2[nH]c(=S)n1Cc1ccco1)CCC3 and state if its solubility kinetic is at or above 30 µg/mL.
Reply text: yes

Inquiry: Please check the record COc1cc2c(cc1OC)CC(=O)NC=C2 and state if its solubility kinetic is at or above 30 µg/mL.
Reply text: yes

Inquiry: Please check the record CC(C)c1ccc(NC(=O)CCCC(=O)NCCc2ccccc2)cc1 and state if its solubility kinetic is at or above 30 µg/mL.
Reply text: no

Inquiry: Please check the record COc1ccc(C(=O)N2C[C@H]3C[C@@H](C2)c2cccc(=O)n2C3)cc1OC and state if its solubility kinetic is at or above 30 µg/mL.
Reply text: yes

Inquiry: Please check the record Cc1cccc(C)c1NC(=O)COC(=O)c1cc[n+]([O-])cc1 and state if its solubility kinetic is at or above 30 µg/mL.
Reply text: yes

Inquiry: Please check the record Cc1ccc(S(=O)(=O)N2CCOCC2)cc1C(=O)OCC(=O)N1CCCCC1 and state if its solubility kinetic is at or above 30 µg/mL.
Reply text: yes

Inquiry: Please check the record CCC(=O)Nc1ccc(/C=C(\C(C)=O)C(=O)c2ccccc2)cc1 and state if its solubility kinetic is at or above 30 µg/mL.
Reply text: yes

Inquiry: Please check the record CCC(Cc1ccccc1)NC(=O)/C=C/c1ccco1 (stereo not given) and state if its solubility kinetic is at or above 30 µg/mL.
Reply text: no

Inquiry: Please check the record O=C(CN1C(=O)c2ccccc2S1(=O)=O)NC1CCCCC1 and state if its solubility kinetic is at or above 30 µg/mL.
Reply text: yes

Inquiry: Please check the record COC(=O)c1ccc(N/C=C/C(=O)c2ccccc2)cc1 and state if its solubility kinetic is at or above 30 µg/mL.
Reply text: no

Inquiry: Please check the record CSc1ncccc1C(=O)NCc1nnc2ccccn12 and state if its solubility kinetic is at or above 30 µg/mL.
Reply text: yes

Inquiry: Please check the record O=C(Nc1nccs1)c1ccc(Cl)nc1 and state if its solubility kinetic is at or above 30 µg/mL.
Reply text: yes
